Target: spermine oxidase (SMO) (Homo sapiens)
Test: biochemical
experimental-readout: Kd (µM)
One number for each entry, in µM.

q: Quick one: Kd of "NCCCNCCCCNCCCN" ?
a: 48

###

Molecular target: spermine oxidase (SMO) (Homo sapiens, UniProt Q9NWM0)
Sequence (Q9NWM0 whole entry): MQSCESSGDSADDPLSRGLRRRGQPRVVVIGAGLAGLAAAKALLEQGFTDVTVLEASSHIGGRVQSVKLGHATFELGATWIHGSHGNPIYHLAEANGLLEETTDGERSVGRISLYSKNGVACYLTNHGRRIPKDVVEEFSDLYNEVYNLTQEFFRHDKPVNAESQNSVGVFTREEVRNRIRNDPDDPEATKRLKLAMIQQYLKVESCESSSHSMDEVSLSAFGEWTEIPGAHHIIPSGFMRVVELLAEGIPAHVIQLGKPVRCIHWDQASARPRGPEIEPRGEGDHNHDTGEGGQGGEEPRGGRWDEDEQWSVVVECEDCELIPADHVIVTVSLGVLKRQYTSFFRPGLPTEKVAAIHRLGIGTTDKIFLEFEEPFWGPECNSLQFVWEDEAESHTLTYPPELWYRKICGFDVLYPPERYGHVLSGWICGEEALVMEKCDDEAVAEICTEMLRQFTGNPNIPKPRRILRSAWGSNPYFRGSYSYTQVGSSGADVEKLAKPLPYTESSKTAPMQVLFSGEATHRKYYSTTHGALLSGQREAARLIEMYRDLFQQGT
Type: biochemical
experimental-readout: Ki (µM)
Answers are plain numbers, in µM.

>>> recorded_measurement("NCCCCNCCCN")
550

Let's switch to this compound now.
q: Quick one: Ki of "c1ccc(CNCCCCNCc2ccccc2)cc1" ?
a: 320
